Conditions: 298.15 K, Pendant drop shape
measured property: surface tension liquid-gas (mN/m)
Report the figure in mN/m without appending any unit label.

### Prompt Look up surface tension liquid-gas: Cc1cc(C)cc(C)c1
### Response 28.09

### Prompt Which surface tension liquid-gas value belongs to CCCCOC(C)=O [butyl ethanoate] ?
### Response 24.89

### Prompt Look at this molecule and give its reported surface tension liquid-gas. CCCOC(C)=O [propyl ethanoate]
### Response 23.99

### Prompt Give its surface tension liquid-gas value. Item: Cc1ccc(C)c(C)c1
### Response 29.17

* * *

Exercise: state measured mass density for each of the compounds provided.
Conditions: 308.15 K; 101 kPa; Liquid; Vibrating tube method
Numbers after ± are expanded uncertainties.

### Prompt Look up mass density: Cc1cc(C)cc(C)c1
### Response 852.84 ± 0.18 kg/m3

### Prompt Which measured mass density value corresponds to CCCOC(C)=O [propyl ethanoate] ?
### Response 871.33 ± 0.15 kg/m3

### Prompt Request the reported mass density associated with CCCCOC(C)=O [butyl ethanoate]
### Response 866.24 ± 0.14 kg/m3

### Prompt Please report the recorded mass density for Cc1ccc(C)c(C)c1 .
### Response 863.59 ± 0.19 kg/m3

* * *

Conditions: 313.15 K; 101 kPa; Liquid; Vibrating tube method
measured property: mass density (kg/m3)
Report as a plain number; the unit kg/m3 is understood.

### Prompt For the compound Cc1cc(C)cc(C)c1 , what mass density is on record?
### Response 848.74

### Prompt I have this compound here, CCCOC(C)=O [propyl ethanoate] , and I need its recorded mass density.
### Response 865.68

### Prompt Please give the measured mass density for this compound: CCCCOC(C)=O [butyl ethanoate]
### Response 861.57

### Prompt Return reported mass density; argument: Cc1ccc(C)c(C)c1
### Response 859.54

* * *

Kindly supply the reported surface tension liquid-gas values for the records listed here.
Settings: 308.15 K, Pendant drop shape
Respond numerically; units are mN/m and should not be typed.

### Prompt What value of surface tension liquid-gas has been reported for the following compound? Cc1ccc(C)c(C)c1
### Response 28.17

### Prompt What value of surface tension liquid-gas has been recorded for this entry: CCCCOC(C)=O [butyl ethanoate]
### Response 23.82

### Prompt Looking for the measured surface tension liquid-gas of CCCOC(C)=O [propyl ethanoate] , can you help?
### Response 22.73

### Prompt Given the entry Cc1cc(C)cc(C)c1 , report its measured surface tension liquid-gas.
### Response 27.24

* * *

Conditions: 313.15 K, Pendant drop shape
± gives the expanded uncertainty stated by the source.
measured property: surface tension liquid-gas

### Prompt Please look up its surface tension liquid-gas: Cc1ccc(C)c(C)c1 [1,2,4-trimethylbenzene]
### Response 27.67 ± 0.31 mN/m

### Prompt Param item = CCCCOC(C)=O [butyl ethanoate] ; retrieve measured surface tension liquid-gas.
### Response 23.28 ± 0.26 mN/m

### Prompt State the recorded surface tension liquid-gas for this entry: CCCOC(C)=O [propyl ethanoate]
### Response 22.1 ± 0.3 mN/m

### Prompt Record request: surface tension liquid-gas value, item Cc1cc(C)cc(C)c1 [1,3,5-trimethylbenzene]
### Response 26.82 ± 0.3 mN/m

* * *

Settings: 303.15 K; 101 kPa; Liquid; Vibrating tube method
measured property: mass density (kg/m3)
Response body: numeric value in kg/m3, unit text excluded.

### Prompt Could you share which mass density value was measured for CCCCOC(C)=O [butyl ethanoate] ?
### Response 871.31

### Prompt Consider the compound shown here: CCCOC(C)=O [propyl ethanoate] What is its recorded mass density?
### Response 876.99

### Prompt What value of mass density has been recorded for this entry: Cc1cc(C)cc(C)c1
### Response 856.96

### Prompt Entry under review: Cc1ccc(C)c(C)c1 . Reported mass density?
### Response 867.61
